Biological target: T1, recombinant human IL4Rα-his protein (in house made) (human, UniProt P24394 26-232, limits assumed)
T1 construct: also called Human IL4Ra-his
Assay: SPR (Biacore), antibody captured, IL4Rα-his flowed
pKd: −log10 of the molar value.

>  <binder>
huC2C1A1A1-V2 (antibody, human IgG4 S228P, kappa, V domains shown, Humanized, human IgG4/kappa) VH: EVQLVESGGGLVQPGGSLRLSCAASGFTFSTYGMSWVRQAPGKGLVWVSTINSNGGSTSYPDSVKGRFTISRDNAKNTLYLQMNSLRAEDTAVYYCARFFRFRNAMDYWGQGTLVTVSS VL: DIQMTQSPSSLSASVGQRVTITCRTSENIYSYLAWYQQKQGKPPRFLIYNAKTLAEGVPSRFSGSGSGTEFTLTITSLQAEDFGVYYCQHYYGPPTWTFGPGTKLEIKR

>  <pKd>
> 10.35

$$$$
>  <binder>
huC2C1A1A1-V14 (antibody, human IgG4 S228P, kappa, V domains shown, Humanized, human IgG4/kappa) VH: EVQLVESGGGLVQPGGSLRLSCAASGFTFSTYGMSWVRQAPGKGLVWVATINSNGGSTSYPDSVKGRFTISRDNAKNTLYLQMNSLRAEDTAVYYCARFFRFRNAMDYWGQGTLVTVSS VL: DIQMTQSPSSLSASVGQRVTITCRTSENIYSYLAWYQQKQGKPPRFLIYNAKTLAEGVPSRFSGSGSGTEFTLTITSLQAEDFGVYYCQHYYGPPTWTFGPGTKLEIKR

>  <pKd>
> 10.18

$$$$
